Data credit: the supplement of paper PMC3334620

testedTarget: Upc2 (UniProt Q12151)
Sequence: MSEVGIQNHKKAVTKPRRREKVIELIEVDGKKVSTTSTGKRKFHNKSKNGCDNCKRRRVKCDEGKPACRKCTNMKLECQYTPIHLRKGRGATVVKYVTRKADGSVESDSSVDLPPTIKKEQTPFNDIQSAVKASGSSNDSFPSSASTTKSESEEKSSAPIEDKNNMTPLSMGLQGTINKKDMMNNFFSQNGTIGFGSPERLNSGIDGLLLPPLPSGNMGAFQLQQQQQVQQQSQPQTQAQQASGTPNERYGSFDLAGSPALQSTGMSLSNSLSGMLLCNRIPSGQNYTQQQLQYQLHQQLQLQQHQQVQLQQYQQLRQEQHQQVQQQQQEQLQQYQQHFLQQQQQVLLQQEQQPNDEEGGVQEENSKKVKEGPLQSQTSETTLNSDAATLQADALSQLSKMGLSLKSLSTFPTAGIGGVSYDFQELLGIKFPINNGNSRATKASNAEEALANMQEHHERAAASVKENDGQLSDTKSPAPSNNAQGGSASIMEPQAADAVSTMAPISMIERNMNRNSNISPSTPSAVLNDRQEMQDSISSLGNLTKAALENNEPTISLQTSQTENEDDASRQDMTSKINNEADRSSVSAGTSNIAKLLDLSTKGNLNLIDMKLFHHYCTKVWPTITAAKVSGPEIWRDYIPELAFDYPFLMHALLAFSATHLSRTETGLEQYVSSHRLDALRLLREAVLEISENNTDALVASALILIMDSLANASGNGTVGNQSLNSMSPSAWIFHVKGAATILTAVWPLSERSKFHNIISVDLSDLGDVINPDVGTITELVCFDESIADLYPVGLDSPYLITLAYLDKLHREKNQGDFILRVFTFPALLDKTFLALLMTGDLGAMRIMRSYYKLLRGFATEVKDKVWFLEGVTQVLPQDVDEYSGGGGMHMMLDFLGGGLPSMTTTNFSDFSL
protocolSummary: PBM E-score (8-mer binding enrichment) (E-score (-0.5 to 0.5)); higher = stronger / more preferred TF binding
experimentalSetup: protein concentration: 200 nM; construct: GST-full length
Over roughly 33,000 sequences, “E-score (-0.5 to 0.5)” has its median near -0.043; the highest 2% begin near 0.37. The sample as a whole holds a higher share of the highest values than the screen did.
Values of PBM E-score greater than or equal to 0.02 map to Yes; values below map to No.

Q: Check if PBM E-score >= 0.02 (inclusive). Item: CGGGTACG
Ans: Yes

Q: Check if PBM E-score >= 0.02 (inclusive). Item: ATTATGAG
Ans: No

Q: Check if PBM E-score >= 0.02 (inclusive). Item: AACGGTTC
Ans: Yes

Q: Check if PBM E-score >= 0.02 (inclusive). Item: ATCGACAG
Ans: No

Q: Check if PBM E-score >= 0.02 (inclusive). Item: ATCGCTTA
Ans: Yes

Next:
Q: Check if PBM E-score >= 0.02 (inclusive). Item: CTCGCTTA
Ans: Yes

Q: Check if PBM E-score >= 0.02 (inclusive). Item: ACTCGTTC
Ans: Yes

---

testedTarget: Upc2 (UniProt Q12151)
Sequence: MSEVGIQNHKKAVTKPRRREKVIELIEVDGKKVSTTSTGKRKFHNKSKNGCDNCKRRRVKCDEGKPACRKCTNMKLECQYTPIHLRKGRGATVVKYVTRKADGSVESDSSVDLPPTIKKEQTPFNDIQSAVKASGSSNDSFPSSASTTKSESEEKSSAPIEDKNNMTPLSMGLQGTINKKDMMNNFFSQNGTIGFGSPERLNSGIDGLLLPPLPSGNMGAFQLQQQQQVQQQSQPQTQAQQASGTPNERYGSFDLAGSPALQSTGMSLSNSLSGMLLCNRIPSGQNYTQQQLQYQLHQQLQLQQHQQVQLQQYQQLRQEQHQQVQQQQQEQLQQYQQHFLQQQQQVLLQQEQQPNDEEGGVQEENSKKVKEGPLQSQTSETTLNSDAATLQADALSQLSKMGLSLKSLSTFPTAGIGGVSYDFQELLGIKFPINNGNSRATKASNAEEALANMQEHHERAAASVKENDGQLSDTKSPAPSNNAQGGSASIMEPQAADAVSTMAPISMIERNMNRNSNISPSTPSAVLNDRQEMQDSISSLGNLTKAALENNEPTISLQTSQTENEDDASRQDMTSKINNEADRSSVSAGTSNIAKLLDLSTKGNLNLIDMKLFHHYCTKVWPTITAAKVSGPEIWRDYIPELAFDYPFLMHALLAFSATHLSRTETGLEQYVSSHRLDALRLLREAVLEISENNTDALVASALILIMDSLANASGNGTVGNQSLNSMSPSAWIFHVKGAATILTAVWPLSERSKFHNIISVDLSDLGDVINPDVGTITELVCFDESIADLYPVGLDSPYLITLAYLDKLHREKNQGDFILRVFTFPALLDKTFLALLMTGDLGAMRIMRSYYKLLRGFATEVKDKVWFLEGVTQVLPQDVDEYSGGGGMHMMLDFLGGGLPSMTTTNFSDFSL
protocolSummary: PBM E-score (8-mer binding enrichment) (E-score (-0.5 to 0.5)); higher = stronger / more preferred TF binding
experimentalSetup: protein concentration: 200 nM; construct: GST-full length
In all, about 33,000 sequences were measured (“E-score (-0.5 to 0.5)”: median about -0.043, highest 2% from about 0.37 on). For the sample, the highest values were picked, then their nearest neighbours and some sequences at random.
recordedEndpoint: PBM E-score
Field format: numeric only.

These solved cases illustrate the format of a correct answer.
Q: Provide only the value of recorded PBM E-score for CGCATAGA
Ans: 0.158

Q: Provide only the value of recorded PBM E-score for AACGACAA
Ans: 0.402

Q: Provide only the value of recorded PBM E-score for CGTACCAA
Ans: 0.392

Q: Provide only the value of recorded PBM E-score for AACGACAT
Ans: 0.432

Q: Provide only the value of recorded PBM E-score for CACCAATC
Ans: -0.249

Q: Provide only the value of recorded PBM E-score for AGGGCTAC
Ans: -0.113

For the next question, use this sequence.
Q: Provide only the value of recorded PBM E-score for ACAAGCTC
Ans: -0.0437

---

Overview of recorded PBM E-score for various sequences
testedTarget: Upc2 (UniProt Q12151)
Sequence: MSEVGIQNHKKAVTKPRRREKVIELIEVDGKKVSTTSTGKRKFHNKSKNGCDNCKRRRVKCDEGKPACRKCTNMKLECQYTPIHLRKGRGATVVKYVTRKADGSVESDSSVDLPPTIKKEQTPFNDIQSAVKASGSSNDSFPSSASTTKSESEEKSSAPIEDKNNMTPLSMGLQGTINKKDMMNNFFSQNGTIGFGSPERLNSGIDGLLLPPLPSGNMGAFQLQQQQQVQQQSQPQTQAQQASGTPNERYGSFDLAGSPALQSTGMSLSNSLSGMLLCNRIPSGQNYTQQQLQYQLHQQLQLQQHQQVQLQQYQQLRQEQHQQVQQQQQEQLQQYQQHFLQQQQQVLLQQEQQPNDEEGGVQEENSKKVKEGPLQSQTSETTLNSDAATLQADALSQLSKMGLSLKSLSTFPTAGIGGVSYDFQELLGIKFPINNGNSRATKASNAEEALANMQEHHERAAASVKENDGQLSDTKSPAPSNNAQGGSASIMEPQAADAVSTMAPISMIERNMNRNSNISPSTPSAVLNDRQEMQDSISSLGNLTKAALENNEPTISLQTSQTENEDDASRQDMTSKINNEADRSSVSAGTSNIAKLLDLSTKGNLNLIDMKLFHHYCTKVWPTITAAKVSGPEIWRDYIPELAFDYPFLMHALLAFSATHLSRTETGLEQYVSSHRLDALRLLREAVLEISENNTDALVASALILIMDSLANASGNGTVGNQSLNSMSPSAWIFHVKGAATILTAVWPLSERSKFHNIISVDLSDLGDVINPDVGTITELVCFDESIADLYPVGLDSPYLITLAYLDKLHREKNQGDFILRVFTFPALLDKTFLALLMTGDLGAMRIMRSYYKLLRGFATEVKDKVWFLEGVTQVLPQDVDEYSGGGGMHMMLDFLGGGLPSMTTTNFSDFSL
protocolSummary: PBM E-score (8-mer binding enrichment) (E-score (-0.5 to 0.5)); higher = stronger / more preferred TF binding
experimentalSetup: protein concentration: 200 nM; construct: GST-full length
The full ranking holds about 33,000 sequences; the median of “E-score (-0.5 to 0.5)” is about -0.043, and the highest 2% start at about 0.37. Only a selection was taken, and the highest values are over-represented in it overall.
Field format: numeric only.

These solved cases illustrate the format of a correct answer.
Q: Provide only the value of recorded PBM E-score for CGAGAGAA
Ans: 0.113

Q: Provide only the value of recorded PBM E-score for CAATAGAA
Ans: -0.241

Q: Provide only the value of recorded PBM E-score for CTAAGCTC
Ans: -0.201

Q: Provide only the value of recorded PBM E-score for ACCGACAT
Ans: 0.199

Next:
Q: Provide only the value of recorded PBM E-score for CCTATGGC
Ans: -0.195

Q: Provide only the value of recorded PBM E-score for AAAACTCA
Ans: -0.0631

Q: Provide only the value of recorded PBM E-score for AGTACCAA
Ans: -0.0772

Q: Provide only the value of recorded PBM E-score for ATAGTATG
Ans: 0.0124

Q: Provide only the value of recorded PBM E-score for ATCGCATA
Ans: 0.318
